Experimental system: MAP4K4 (Homo sapiens)
Construct: recombinant kinase of the ThermoFisher SelectScreen service
Sequence (O95819 2-1239): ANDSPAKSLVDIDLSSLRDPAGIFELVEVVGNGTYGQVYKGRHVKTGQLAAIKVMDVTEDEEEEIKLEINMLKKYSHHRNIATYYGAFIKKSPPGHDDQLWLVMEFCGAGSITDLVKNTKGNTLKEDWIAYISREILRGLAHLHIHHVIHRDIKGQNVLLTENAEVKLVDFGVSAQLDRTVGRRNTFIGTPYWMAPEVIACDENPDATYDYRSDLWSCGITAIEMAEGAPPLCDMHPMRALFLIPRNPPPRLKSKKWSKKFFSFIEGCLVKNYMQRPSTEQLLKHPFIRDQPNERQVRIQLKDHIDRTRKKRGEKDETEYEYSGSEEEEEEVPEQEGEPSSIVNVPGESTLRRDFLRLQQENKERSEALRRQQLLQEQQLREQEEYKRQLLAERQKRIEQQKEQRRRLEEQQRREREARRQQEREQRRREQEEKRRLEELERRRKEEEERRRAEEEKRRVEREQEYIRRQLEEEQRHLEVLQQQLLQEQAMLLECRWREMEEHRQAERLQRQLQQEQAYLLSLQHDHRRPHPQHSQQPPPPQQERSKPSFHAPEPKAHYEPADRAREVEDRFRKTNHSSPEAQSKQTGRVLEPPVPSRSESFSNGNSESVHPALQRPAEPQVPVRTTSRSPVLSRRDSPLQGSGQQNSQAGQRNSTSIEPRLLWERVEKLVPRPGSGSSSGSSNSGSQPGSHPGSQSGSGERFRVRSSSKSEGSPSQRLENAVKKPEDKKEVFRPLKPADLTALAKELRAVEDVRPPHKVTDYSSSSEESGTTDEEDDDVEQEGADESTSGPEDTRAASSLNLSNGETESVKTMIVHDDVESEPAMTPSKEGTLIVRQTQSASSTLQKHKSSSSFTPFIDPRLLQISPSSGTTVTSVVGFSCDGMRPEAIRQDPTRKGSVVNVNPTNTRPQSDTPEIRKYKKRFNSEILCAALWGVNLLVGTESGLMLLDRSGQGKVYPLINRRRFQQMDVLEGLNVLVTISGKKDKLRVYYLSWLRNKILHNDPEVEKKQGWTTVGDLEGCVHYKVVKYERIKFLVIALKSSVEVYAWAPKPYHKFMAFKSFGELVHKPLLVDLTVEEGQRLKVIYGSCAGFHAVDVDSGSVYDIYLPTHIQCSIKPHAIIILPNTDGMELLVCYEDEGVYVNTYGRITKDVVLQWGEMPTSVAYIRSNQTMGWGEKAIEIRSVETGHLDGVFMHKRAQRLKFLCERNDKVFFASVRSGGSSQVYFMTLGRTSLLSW
Assay procedure: Z'LYTE kinase activity assay
Assay type: biochemical
Experimental endpoint: inhibition at 1 µM (%)
State the answer as a number, implicitly in %.

Before answering, review these 3 worked examples.
| Compound structure string | Quantity unit | inhibition at 1 µM |
| --- | --- | --- |
| COc1cccc(CNC(=O)c2ccc3c(c2)NC(=O)C(=Cc2ccc(Cl)cc2)O3)c1 | % | 70 |
| CCOc1ccccc1CNC(=O)c1ccc2c(c1)NC(=O)C(=Cc1cccc(Cl)c1)O2 | % | 57 |
| O=C1Nc2cc(C(=O)NCc3ccccc3Cl)ccc2OC1=Cc1cccc(Cl)c1 | % | 57 |

Quote inhibition at 1 µM reported for O=C1Nc2cc(C(=O)NCc3cccc(F)c3)ccc2OC1=Cc1cccc(Cl)c1 please.
61

// Input: COc1cccc(CNC(=O)c2ccc3c(c2)NC(=O)C(=Cc2cccc(Cl)c2)O3)c1 . Output its inhibition at 1 µM only.
59

Annotate the molecule O=C1Nc2cc(C(=O)NCc3ccccc3F)ccc2OC1=Cc1ccc(Cl)cc1 with its measured inhibition at 1 µM.
72

Give the reported value of inhibition at 1 µM for this record: CCOc1cc(CNC(=O)c2ccc3c(c2)NC(=O)C(=Cc2ccc(Cl)cc2)O3)ccc1OC
67

In one line, give reported inhibition at 1 µM of the entry COc1ccccc1CNC(=O)c1ccc2c(c1)NC(=O)C(=Cc1ccc(Cl)cc1)O2 .
68

Fill in reported inhibition at 1 µM for this entry: CCOc1ccc(CNC(=O)c2ccc3c(c2)NC(=O)C(=Cc2cccc(Cl)c2)O3)cc1
67
